Reference for the values: the Human Domainome abundance scans (Beltran et al. 2025)

Exercise: state measured abundance fitness for each of the variants provided.
B1: CD2-associated protein, residues 271 to 331; numbered along this chain, Q9Y5K6 (parent)
chain: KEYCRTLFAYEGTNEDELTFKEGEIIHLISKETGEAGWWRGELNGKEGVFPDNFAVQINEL

variants of: B1; test: abundance fitness (aPCA) (normalised: wild type 0, dead -1); higher = more abundant; growth selection in yeast, the domain comes from the species named; conditions: Homo sapiens
One number for each entry.

Record abundance fitness per entry; entries follow.
1. KEYCRTLFAYEGTNEDELTFKEGEIIHLISKETGEAGWWRGALNGKEGVFPDNFAVQINEL [E42A]
2. KEYCRTLFAYEGTNEDELTCKEGEIIHLISKETGEAGWWRGELNGKEGVFPDNFAVQINEL [F20C]
3. KEYCRTLFAYEWTNEDELTFKEGEIIHLISKETGEAGWWRGELNGKEGVFPDNFAVQINEL [G12W]
4. KEYCRTLFAYEGTNEDELTFKEGEIIHLISKETGEAGWWRGLLNGKEGVFPDNFAVQINEL [E42L]
5. KEYCRTLFAYEGTNEDELTFKEFEIIHLISKETGEAGWWRGELNGKEGVFPDNFAVQINEL [G23F]
6. KEYCRTLFAYEGTNEDELTFKEGEIIHLISKETGEAGWWRGELNGKEGVFPDNGAVQINEL [F54G]

A)
1: 0.006; 2: -0.793; 3: -0.471; 4: -0.218; 5: -0.863; 6: -0.32

// batch mode: one abundance fitness value per listed entry
1. KEYCRTLFAYEGTNEDELTFKEGEIIHLISKETIEAGWWRGELNGKEGVFPDNFAVQINEL [G34I]
2. KEYCRTLFAYEGTNEDELTFKEGEIIHLISKETMEAGWWRGELNGKEGVFPDNFAVQINEL [G34M]

A)
1. -0.66
2. -0.423

Batch request: abundance fitness for each of the following variants.
1. KEYCRTLFAYEGTNEDELTFKEGEIIHLISKETGEAGWWRGELNGKEGVFPDNFAVQIDEL [N59D]
2. KSYCRTLFAYEGTNEDELTFKEGEIIHLISKETGEAGWWRGELNGKEGVFPDNFAVQINEL [E2S]
3. KEYCRTLFAYEGTNEDELTFKEGEIIHLISKETGEAGWWRGELNGKEGVFPDNFAVQVNEL [I58V]
4. KEYCRTSFAYEGTNEDELTFKEGEIIHLISKETGEAGWWRGELNGKEGVFPDNFAVQINEL [L7S]

A)
1. -0.145
2. -0.128
3. 0.005
4. -0.107

Quick one: give me abundance fitness for each item below, same order please.
1. KEYCRTLFTYEGTNEDELTFKEGEIIHLISKETGEAGWWRGELNGKEGVFPDNFAVQINEL [A9T]
2. KEYCRTLFAYEGTNEDELTFKEGEIIHLISKETGEAGWWRGELNGKEGVFPDNIAVQINEL [F54I]
3. KEYCRTLFAYEGTNEDELTFKEGEGIHLISKETGEAGWWRGELNGKEGVFPDNFAVQINEL [I25G]

A)
-0.268
-0.191
-0.602

The following variants each have a reported value; give each one's abundance fitness.
1. KEYCRTLFAYEGTNEDELTFKEGEIIHLDSKETGEAGWWRGELNGKEGVFPDNFAVQINEL [I29D]
2. KEYCRTLFAHEGTNEDELTFKEGEIIHLISKETGEAGWWRGELNGKEGVFPDNFAVQINEL [Y10H]
3. KEYCRTLFAYEGTNEDELTFKEGEIIHLISKETGEAPWWRGELNGKEGVFPDNFAVQINEL [G37P]
4. KEYCRTLWAYEGTNEDELTFKEGEIIHLISKETGEAGWWRGELNGKEGVFPDNFAVQINEL [F8W]

A)
1: -0.668; 2: -0.373; 3: -0.852; 4: -0.139

For every item in the list below, what is its measured abundance fitness?
1. KEYCFTLFAYEGTNEDELTFKEGEIIHLISKETGEAGWWRGELNGKEGVFPDNFAVQINEL [R5F]
2. KEYCRTLFAYEGTNEDELTFKEGEIIHLISKETGEAGWWRGELNGKEGVFPDNFAVQINEK [L61K]
3. KEYCRTLFAYEGTNEDELTFKEGEIIHLISKETGEAGWWRGELNGKPGVFPDNFAVQINEL [E47P]
4. KETCRTLFAYEGTNEDELTFKEGEIIHLISKETGEAGWWRGELNGKEGVFPDNFAVQINEL [Y3T]
5. KEYCRTLFAYEGTNEDELTFKEGEIIHLISMETGEAGWWRGELNGKEGVFPDNFAVQINEL [K31M]
6. KEYCRTLFAYEGTNEDELTFKEGEIIHLMSKETGEAGWWRGELNGKEGVFPDNFAVQINEL [I29M]
7. KEYCRTLFAYEGTNEDELTFKEGEIIHLISKETGEAGWWRGELNGKEGVFPMNFAVQINEL [D52M]

A)
-0.487
0.033
-0.752
-0.608
-0.013
-0.185
0.077

For each of the items listed, what is its abundance fitness?
1. KEYCRTLFAYEGTNEDELTFKEGEIIHLISKETGEAGWWRGDLNGKEGVFPDNFAVQINEL [E42D]
2. KEYCRTLFAYEGTKEDELTFKEGEIIHLISKETGEAGWWRGELNGKEGVFPDNFAVQINEL [N14K]
3. KEYCRTLFAYEGSNEDELTFKEGEIIHLISKETGEAGWWRGELNGKEGVFPDNFAVQINEL [T13S]

A)
-0.298
-0.033
-0.051

Quick batch: abundance fitness for everything below.
1. KEYCRTLFAYEGTNEDELTFKEGEIIHLISKYTGEAGWWRGELNGKEGVFPDNFAVQINEL [E32Y]
2. KEYCRKLFAYEGTNEDELTFKEGEIIHLISKETGEAGWWRGELNGKEGVFPDNFAVQINEL [T6K]

A)
[-0.167, -0.607]
